tested on: OVCAR-8 ovarian; test: NCI tumour cell line growth inhibition, 48 h
OUTCOME_MEASURE: TGI

1. O=C(Nc1ccc(Cl)c(Cl)c1)NS(=O)(=O)c1cnccc1Oc1ccc(F)cc1; > 100 µM
2. COC(=O)c1cc(C#N)[nH]c1-c1cc(Br)cs1; 43.7 µM
3. O=C(N/N=C/c1ccc(Br)cc1)N/N=C/c1ccc(Br)cc1; 19.8 µM
4. CCNC(=O)COc1ccc(Cl)cc1Cl; > 100 µM
5. CCC(=O)Nc1nc2c(ncn2C2OC(COC(=O)CC)C(OC(=O)CC)C2OC(=O)CC)c(=O)[nH]1 (stereo not drawn); > 100 µM
6. O=c1[nH]c(=O)n(C2CC(O)C(CO)O2)cc1OCc1ccccc1 (stereo not drawn); > 100 µM
7. CCOC(=O)c1nnsc1NN; > 100 µM
8. O=C1CSC2=NC3=C(COC/C3=C\c3ccc(Br)cc3)C(c3ccc(Br)cc3)N12 (stereo not drawn); > 100 µM
9. CNC(=O)c1nn(C)c2c1C(C)(C)Cc1cnc(Nc3ccc(N4CCN(C)CC4)cc3)nc1-2; > 10 µM
10. C1=C\SS/C=C\SS/1; 49.8 µM
11. CC(C)(C)OC(=O)NCCCCCCCn1c2c(c3ccccc3c1=O)C(=O)c1ccccc1-2; > 100 µM
12. CSc1nnc(COc2ccc(Cl)cc2)o1; > 100 µM
13. O=C(O)[C@H](c1ccccc1)[C@@H](C(=O)O)c1ccccc1; > 100 µM
14. Cc1nc(C(N)=S)sc1C(=O)/C=C/c1c(O)ccc2ccccc12; > 100 µM
15. COc1ccc2[nH]c3c(c2c1)[C@H](C)C[C@@H]1C(=O)N(c2ccccc2)C(=O)[C@H]31; 37.8 µM
16. Oc1[nH]c2ccccc2c1N=NC(=S)Nc1ccc(Cl)cc1; 98.8 µM
17. COc1ccc(CC2COc3cc(O)cc(O)c3C2=O)cc1O (stereo not drawn); > 100 µM
18. Cc1ccc(/C=C2\Cc3c(C)cc(C)cc3C2=O)c(C(=O)O)c1; > 100 µM
19. CO[C@@H]1O[C@H](C(=O)c2ccccc2)[C@H]2OC(C)(C)O[C@@H]12; > 100 µM
20. COc1ccc(OC)c(Cn2cc3c(c2-c2ccccc2)CCc2cnoc2-3)c1; > 100 µM
21. O=c1cc(/C=C/c2ccccc2)[nH]c2cc3c(cc12)OCO3; 19.9 µM
22. O=c1cc(N2CCCC2)[nH]c(=O)n1-c1ccccc1; > 100 µM
23. CN1CCN(c2cc3nsnc3c3nsnc23)CC1; > 10 µM
